- Procedure details: clinical
- Measurement setup: human, urine, po
Endpoint name: CL renal

Recorded CL renal for "CC#CCn1c(N2CCC[C@@H](N)C2)nc2c1c(=O)n(Cc1nc(C)c3ccccc3n1)c(=O)n2C" , please? 14 to 70 mL/min

====

- Procedure details: clinical
- Measurement setup: human, plasma, po, 5 mg
Endpoint name: AUC(0-t)
Entry format: amount then unit.

Which AUC(0-t) value is on record for "CC#CCn1c(N2CCC[C@@H](N)C2)nc2c1c(=O)n(Cc1nc(C)c3ccccc3n1)c(=O)n2C" ? 0.118 µM·h

====

- Procedure details: clinical
- Measurement setup: human, plasma, po, 5 mg
Endpoint name: Cmax (nM)
The answer is to be given in nM; state only the numeric part.

// query Cmax value for entry "CC#CCn1c(N2CCC[C@@H](N)C2)nc2c1c(=O)n(Cc1nc(C)c3ccccc3n1)c(=O)n2C" 8.32

====

- Procedure details: Pharmacokinetics of BI 1356, multiple oral doses once daily for 12 days in adult patients with type 2 diabetes
- Measurement setup: read-out: Cmax,ss; gMean; steady state (Day 12); 1 mg once daily oral
Endpoint name: Cmax (nM)
Note: unit nM is implicit; provide only the numeric part.

Which Cmax is reported for this compound? CC#CCn1c(N2CCC[C@@H](N)C2)nc2c1c(=O)n(Cc1nc(C)c3ccccc3n1)c(=O)n2C [BI 1356] 4.53

====

- Procedure details: Pharmacokinetics of BI 1356, multiple oral doses once daily for 12 days in adult patients with type 2 diabetes
- Measurement setup: read-out: Cmax,ss; gMean; steady state (Day 12); 5 mg once daily oral
Endpoint name: Cmax (µM)
Use µM as the unit, but write only the number.

Please give the measured Cmax for this compound: "CC#CCn1c(N2CCC[C@@H](N)C2)nc2c1c(=O)n(Cc1nc(C)c3ccccc3n1)c(=O)n2C" 0.0111

====

- Procedure details: clinical
- Measurement setup: human, plasma, po, 10 mg
Endpoint name: AUC(0-t)

Dear colleague, I am looking for the recorded AUC(0-t) of the following compound: "CC#CCn1c(N2CCC[C@@H](N)C2)nc2c1c(=O)n(Cc1nc(C)c3ccccc3n1)c(=O)n2C" 0.161 µM·h

====

- Procedure details: clinical
- Measurement setup: human, plasma, po, 2.5 mg
Endpoint name: AUC(0-t) (µM·h)
Please respond with the number in µM·h and leave the unit unwritten.

Query (compound): "CC#CCn1c(N2CCC[C@@H](N)C2)nc2c1c(=O)n(Cc1nc(C)c3ccccc3n1)c(=O)n2C" ; field requested: AUC(0-t) 0.0853

src = patent US20120122776A1
